Measured protein stability index of individual entries
B1: ANKRD40 (parent)
chain: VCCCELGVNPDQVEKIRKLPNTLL

variants of: B1; assay: protein stability index of a GFP-peptide fusion (GPS, HEK-293T) (PSI 1-6); higher = more stable; conditions: c terminus: a fixed tail appended;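 further: lentivirally expressed fusions sorted by FACS into six bins by GFP to DsRed ratio, PSI derived from sequencing read proportions per bin multiplied by bin number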
# answer = number (no unit)

Illustrative cases are given below, each with its answer.
{"variantString": "L23A", "experimentalReadout": "protein stability index", "reading": 1.98}
{"variantString": "N9P", "experimentalReadout": "protein stability index", "reading": 2}
{"variantString": "G7A", "experimentalReadout": "protein stability index", "reading": 2.02}
{"variantString": "L6C", "experimentalReadout": "protein stability index", "reading": 2.06}

According to the records, this variant P10R displays protein stability index of 2.35

According to the records, this variant G7S displays protein stability index of 1.72

Every entry's value here was drawn from the supplement of paper PMC10567573.
